# Tested on: NCI/ADR-RES ovarian
# METHOD SUMMARY: NCI-60 one-dose screen, 48 h
# TEST SETTINGS: 10 µM unless noted
The panel holds about 83,000 compounds, 20% with a hit somewhere; the sample as a whole holds those more often. Activity calls are given as the source filed them. The calls were made as follows: active = growth percent below 10; inactive = the rest.
Write down one outcome, taken from active, inactive

Known results for molecules:
MOLECULE	ASSIGNED CLASS
O=C(CC(=O)C(F)(F)C(F)(F)C(F)(F)F)c1cc2ccccc2o1	inactive
CCCCn1cnc2c(SCc3ccc([N+](=O)[O-])cc3)nc(N)nc21	inactive
CCOC(=O)Nc1ccc2nc(N3CCCCCC3)sc2c1	active
O=C1Nc2ccccc2/C1=C\c1nc(C2CCN(S(=O)(=O)c3ccc(F)cc3)CC2)n2ccccc12	inactive

Challenge: Just curious, what result did CC(=O)NC1C(O[C@H]2C[C@H]3[C@@H]4CC=C5C[C@@H](O)CC[C@]5(C)[C@H]4CC[C@]3(C)[C@H]2[C@H](C)C(=O)CCC(C)C)OCC(O)C1O (stereo not given in full) get here?
Response given: inactive

----------
# Test system: OVCAR-8 ovarian
# METHOD SUMMARY: NCI-60 one-dose screen, 48 h (100 = growth as untreated, 0 = no growth, -100 = all killed)
# TEST SETTINGS: 10 µM unless noted
About 83,000 compounds went through this panel and 20% of them were active in at least one assay; those are over-represented in the sample as a whole.
Listed here are molecules together with their documented growth.
Your answer should be a plain number; it is taken to be in %.

                                   molecule  unit_abbreviation  quantitative_readout
0                 CCOC(=O)c1cc(N)nc2ccccc12                  %                   108
1  COc1ncnc2[nH]cc(CN3CCN(c4ccc(F)cc4)CC3)c12                  %                   100
2  C#CCO[C@H]1CC[C@H](OCC#C)[C@@H]2[C@H]1[C@H]1C[C@@H]3[C@@]4(C)CCC[C@@](C)(C(=O)OC)[C@@H]4CC[C@@]23C=C1C(C)C                  %                    82
3  COc1cc2ncnc(Nc3ccc(S(=O)(=O)Nc4nccs4)cc3)c2cc1OCCCN1CCOCC1                  %                   103
4       CCn1c(=O)c(C(=O)NCCCO)c(O)c2ccccc21                  %                   103

Challenge: Report growth for `Cc1cccc(/C=N/n2c(-c3ccc(Cl)cc3)nc3c(Br)cc(Br)cc3c2=O)c1` please.
Response given: 32.5

Challenge: Look at this molecule and give its reported growth. C[C@@H]1CC2C3CCC4=CC(=O)C=C[C@]4(C)[C@@]3(Cl)[C@@H](O)C[C@]2(C)[C@@]1(OC(=O)c1ccco1)C(=O)CCl (stereo partly specified)
Response given: 53

Challenge: Given `CC(C)CCSc1nc(Nc2ccccc2)c(C#N)c(-c2ccc(F)cc2)n1` , state its recorded growth.
Response given: 42.2

Challenge: Fill blank: measured growth of the molecule Cc1ccc(C(CN(C)C)C(=O)c2ccccc2)cc1 (stereo unspecified) is ____.
Response given: 14.5

Challenge: Fill in: growth of `CN(C)N1C(=O)c2c(Cl)c(Cl)c(Cl)c(Cl)c2C1=O` is ___
Response given: 105

Challenge: Give its growth value. Item: CC(C)OC1OC(OC(C)C)C(OC(C)C)OC1OC(C)C (stereo unspecified)
Response given: 94.4

Challenge: Any idea what its growth is? The molecule is `CC(C)(C)OC[C@@H]1N=C(c2ccc(Br)cc2)Nc2nc3ccccn3c2C1=O`
Response given: 79.5

Challenge: Fill in: growth of `C[Si](C)(C)C(c1ccccc1)c1ccccc1` is ___
Response given: 102

Challenge: Looking for the measured growth of CC(C)CC1NC(=O)C(CC(C)C)N(CO)C1=O (stereo unspecified) , can you help?
Response given: 107

Challenge: Any idea what its growth is? The molecule is `CN1CCC2(CC1)N=C(SCC(=O)Nc1cnc3ccccc3c1)C(c1ccc(Br)cc1)=N2`
Response given: 19.9

Challenge: Name the recorded growth for COc1cc(C2CC(c3ccc(Cl)cc3)=NN2C(C)=O)ccc1Oc1ccnc2cc(Cl)ccc12 (stereo unspecified) .
Response given: 26.8
